assay: Selectivity index, ratio of CC50 for mouse RAW264.7 cells to MIC for Mycobacterium tuberculosis H37Rv; assay type: toxicity; details: read-out: Selectivity Index
observed_property: selectivity ratio

Example molecules with recorded selectivity ratio:
COc1cnc2ccc(=O)n(CCN3CCC(NC(=O)Nc4ccc(C)cc4)CC3)c2c1 ... > 3.3
COc1cnc2ccc(=O)n(CCN3CCC(NC(=S)Nc4ccccc4)CC3)c2c1 ... > 14
COc1cnc2ccc(=O)n(CCN3CCC(NC(=O)NCc4ccccc4)CC3)c2c1 ... > 7.45
CC(=O)c1ccc(NC(=S)NC2CCN(CCn3c(=O)ccc4ncc(F)cc43)CC2)cc1 ... > 4.71
COc1ccc(NC(=S)NC2CCN(CCn3c(=O)ccc4ncc(F)cc43)CC2)cc1 ... > 58.5

selectivity ratio for `O=C(Nc1ccc([N+](=O)[O-])cc1)NC1CCN(CCn2c(=O)ccc3ncc(F)cc32)CC1` ? > 26.5

selectivity ratio for `COc1cnc2ccc(=O)n(CCN3CCC(NC(=S)Nc4ccc(C(C)=O)cc4)CC3)c2c1` ? > 14.5

selectivity ratio for `COc1cnc2ccc(=O)n(CCN3CCC(NC(=O)Nc4ccc(F)cc4)CC3)c2c1` ? > 161

selectivity ratio for `COc1cnc2ccc(=O)n(CCN3CCC(NC(=O)NCc4ccc(Cl)cc4)CC3)c2c1` ? > 60.6

###

test: Cytotoxicity against mouse RAW264.7 cells at 100 uM after 48 hrs by MTT assay; type: cell-based; conditions: read-out: INH
The reader will find reported cytotoxicity at 48 h, 100 µM values listed item by item below.
# number only, unit % dropped from output

Example compounds with recorded cytotoxicity at 48 h, 100 µM:
O=C(Nc1ccc([N+](=O)[O-])cc1)NC1CCN(CCn2c(=O)ccc3ncc(F)cc32)CC1 ... 38.6
COc1cnc2ccc(=O)n(CCN3CCC(NC(=S)NCc4ccc(Cl)cc4)CC3)c2c1 ... 29.4
COc1cnc2ccc(=O)n(CCN3CCC(NC(=O)NCc4ccc(Cl)cc4)CC3)c2c1 ... 40.9
COc1ccc(CNC(=S)NC2CCN(CCn3c(=O)ccc4ncc(F)cc43)CC2)cc1 ... 41.3

cytotoxicity at 48 h, 100 µM for `COc1cnc2ccc(=O)n(CCN3CCC(NC(=O)Nc4ccc(Cl)cc4)CC3)c2c1` ? 28.5

cytotoxicity at 48 h, 100 µM for `COc1ccc(NC(=O)NC2CCN(CCn3c(=O)ccc4ncc(F)cc43)CC2)cc1` ? 25.5

###

tested on: Mycobacterium tuberculosis; experiment: Inhibition of Mycobacterium tuberculosis GyrA/GyrB using relaxed pBR322 as substrate at 0.97 uM after 30 mins by DNA supercoiling assay
The reader will find reported inhibition values listed item by item below.

Example compounds with recorded inhibition:
COc1ccc(NC(=O)NC2CCN(CCn3c(=O)ccc4ncc(OC)cc43)CC2)cc1 ... > 86%
COc1cnc2ccc(=O)n(CCN3CCC(NC(=O)Nc4ccc(F)cc4)CC3)c2c1 ... > 82%
O=C(NCc1ccc(Cl)cc1)NC1CCN(CCn2c(=O)ccc3ncc(F)cc32)CC1 ... > 92%

inhibition for `COc1cnc2ccc(=O)n(CCN3CCC(NC(=O)Nc4ccc(C)cc4)CC3)c2c1` ? > 87%

inhibition for `O=C(Nc1ccccc1)NC1CCN(CCn2c(=O)ccc3ncc(F)cc32)CC1` ? > 67%

inhibition for `O=c1ccc2ncc(F)cc2n1CCN1CCC(NC(=S)NCc2ccc(Cl)cc2)CC1` ? > 89%

inhibition for `COc1cnc2ccc(=O)n(CCN3CCC(NC(=O)NCc4ccccc4)CC3)c2c1` ? > 97%

inhibition for `O=C(Nc1ccc([N+](=O)[O-])cc1)NC1CCN(CCn2c(=O)ccc3ncc(F)cc32)CC1` ? > 70%

inhibition for `O=c1ccc2ncc(F)cc2n1CCN1CCC(NC(=S)Nc2ccccc2)CC1` ? > 60%

inhibition for `COc1cnc2ccc(=O)n(CCN3CCC(NC(=S)NCc4ccccc4)CC3)c2c1` ? > 94%
